The values you see were collected from patent US8491891B2.

Test system: EJ human bladder carcinoma cells
METHOD SUMMARY: Sensitivity of EJ cells to CPT-11, SN-38, SN-38G (3H-thymidine incorporation)
ASSAY CONDITIONS: read-out: IC50 (cytotoxicity), 24 h exposure, pH not stated

CHEMICAL STRING	IC50
CCc1c2c(nc3ccc(OC(=O)N4CCC(N5CCCCC5)CC4)cc13)-c1cc3c(c(=O)n1C2)COC(=O)[C@]3(O)CC	~2100 nM

====

Test system: EJ/mβG cells
METHOD SUMMARY: Sensitivity of EJ/mβG cells to CPT-11, SN-38, SN-38G (3H-thymidine incorporation)
ASSAY CONDITIONS: read-out: IC50 (cytotoxicity); EJ/mβG cells, pH 6.6

CHEMICAL STRING	IC50
CCc1c2c(nc3ccc(O)cc13)-c1cc3c(c(=O)n1C2)COC(=O)[C@]3(O)CC	2 nM
